So I've got a bunch of compounds here, and I need their IC50 values.
- Test system: human colon cancer cells HCT116
- EXPERIMENTAL PROTOCOL: CCK-8 in vitro antitumor activity (Table 5)
- Assay type: cell-based
- APPLIED CONDITIONS: Homo sapiens, HCT-116; HCT116, CCK-8, 72 hours
Numbers only, in µM.

Known IC50 results, listed for orientation:
COMPOUND | TARGET OR TEST SYSTEM | U | IC50
COc1cccc2c1C(=O)c1c(O)c3c(c(O)c1C2=O)C[C@@](O)(C(=O)CO)C[C@@H]3O[C@H]1C[C@H](N)[C@H](O)[C@H](C)O1 [Doxorubicin, reference compound] | human colon cancer cells HCT116 | µM | 0.019
CC(C)OP(=O)(CN1CCN(C(=O)O[C@H]2CC[C@@]3(C)C(CCC4C3CC[C@]3(C)[C@@H](c5ccc(=O)oc5)CC[C@]43O)C2)CC1)OC(C)C (stereo partly shown) | human colon cancer cells HCT116 | µM | 0.117
CCOP(=O)(CN1CCN(C(=O)O[C@H]2CC[C@@]3(C)C(CCC4C3CC[C@]3(C)[C@@H](c5ccc(=O)oc5)CC[C@]43O)C2)CC1)OCC (stereo partly shown) | human colon cancer cells HCT116 | µM | 0.04

Kindly consider the entry below.
(Q) What value of IC50 has been reported for the following compound? CCOP(=O)(CCCN1CCN(C(=O)O[C@H]2CC[C@@]3(C)C(CCC4C3CC[C@]3(C)[C@@H](c5ccc(=O)oc5)CC[C@]43O)C2)CC1)OCC (stereo partly shown)
(A) 0.027

These data points were gathered from patent US20250205258A1.
